Test: Inhibition of recombinant rat FTase expressed in Escherichia coli using 3H-FPP and biotinylated-DESGPGCMSCKCVLS peptide as substrates incubated for 30 mins in presence of 5 mM phosphate by scintillation proximity assay
experimental_readout: IC50 (nM)
Form entry: value (nM) — number only.

compound	IC50 / nM
N#Cc1ccc(Cn2cncc2CN2CCN(c3cccc(Cl)c3)C(=O)C2)cc1 [L-778123 FREE BASE]	70

Now for another entry.
Req: Consider the compound shown here: Cc1nn(C)c(C)c1C(=O)N1CCN(Cc2nc3ccccc3n2CC(C)(C)C)CC1 What is its recorded IC50?
Resp: 1300
